# Test system: PPARg:RXRa 90nM:30nM, anti-RXR (NR concentration 90 nM, RXRa partner concentration 30 nM)
# ASSAY NAME: PBM binding z-score (relative to random genomic background probes); higher = stronger binding; sequences stand for … in GC…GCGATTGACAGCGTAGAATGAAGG
Examples of sequences with documented PBM binding z-score follow.
REPORTED PROPERTY: PBM binding z-score

INSERT INTO assay_data (macromolecule_sequence, experimental_system, numeric_readout) VALUES
  ('AGAATGAGGTTATTAAGATCAGTGAATTGCGGTC', 'PPARg:RXRa 90nM:30nM, anti-RXR (NR concentration 90 nM, RXRa partner concentration 30 nM)', 0.958),
  ('GCTCGGAGGACAAGGTCAGAGTTTTGTCCGTAGA', 'PPARg:RXRa 90nM:30nM, anti-RXR (NR concentration 90 nM, RXRa partner concentration 30 nM)', 0.859),
  ('ATCAAAAGGTCGACGAGGTGAGTATACACCGTTT', 'PPARg:RXRa 90nM:30nM, anti-RXR (NR concentration 90 nM, RXRa partner concentration 30 nM)', 2.53),
  ('GTAACGAGGGCAAAGTTGATAGCATCTGTCGACG', 'PPARg:RXRa 90nM:30nM, anti-RXR (NR concentration 90 nM, RXRa partner concentration 30 nM)', 7.65),
  ('TCTCGGAGGACACGAGAGGTCAGAGCTCGACATC', 'PPARg:RXRa 90nM:30nM, anti-RXR (NR concentration 90 nM, RXRa partner concentration 30 nM)', 1.48),
  ('TAGCCTAGGTCAGATCGAGCCAGTATACGCTATA', 'PPARg:RXRa 90nM:30nM, anti-RXR (NR concentration 90 nM, RXRa partner concentration 30 nM)', 0.29),
  ('CCTATCAGGCCAGGGTCACTCAAGCATTTCGCTT', 'PPARg:RXRa 90nM:30nM, anti-RXR (NR concentration 90 nM, RXRa partner concentration 30 nM)', 0.886),
  ('CTCGAAAGGTCGGTTGAGGTGAGTATTCGGATAA', 'PPARg:RXRa 90nM:30nM, anti-RXR (NR concentration 90 nM, RXRa partner concentration 30 nM)', 0.23),
  ('TCTTGTACATCAAGCAGGTTAAGAAAGCCTGAGT', 'PPARg:RXRa 90nM:30nM, anti-RXR (NR concentration 90 nM, RXRa partner concentration 30 nM)', 2.18),
  ('CCGACTGGGGCAAAGGTTACCAAACTCAGTACGA', 'PPARg:RXRa 90nM:30nM, anti-RXR (NR concentration 90 nM, RXRa partner concentration 30 nM)', 10.6),
  ('CCTACTGGGCCATTCAGTGGTCATTGATCATATG', 'PPARg:RXRa 90nM:30nM, anti-RXR (NR concentration 90 nM, RXRa partner concentration 30 nM)', 0.191),
  ('CTTAGCAGGCCAATCTGGGTCACTCAAGGCTTGA', 'PPARg:RXRa 90nM:30nM, anti-RXR (NR concentration 90 nM, RXRa partner concentration 30 nM)', 1.43);
